Test: Human HepG2 cell viability assay in 384 well format
Type: toxicity, cell-based
Set-up: dose 125 nL, time 70.5 hour; concentration not given beside the values
Settings: HepG2 cells, read-out: Inhibition
endpoint: cytotoxicity at 70.5 h (%)
Use % as the unit, but write only the number.

{"compound": "CN(C)C(=O)CCC(=O)NCc1cccnc1-n1cnc2ccccc21", "cytotoxicity at 70.5 h / %": -8.79}
{"compound": "OC[C@H]1CCCN1c1nccc(-c2c[nH]nc2C2CCCCC2)n1", "cytotoxicity at 70.5 h / %": 2.37}
{"compound": "O=C(c1cccc(Cl)c1)N1CC[C@H]2[C@H]1CCN2CC1CC1", "cytotoxicity at 70.5 h / %": -9.45}

Sure, the documented cytotoxicity at 70.5 h for "CNC(=O)[C@@H]1C[C@@H](NC(=O)CSc2ccccc2)CN1C1CCOCC1" is 14.1

Sure, the documented cytotoxicity at 70.5 h for "Cc1noc(C)c1CN(C)Cc1csc(-c2ccc(C(C)C)cc2)n1" is 19.9

Sure, the documented cytotoxicity at 70.5 h for "N#Cc1cccc(Cl)c1NCCCc1nc(=O)[nH][nH]1" is -9.76

Sure, the documented cytotoxicity at 70.5 h for "C[C@@H](NC(=O)c1cnccn1)c1c(-c2ccc(F)cc2)noc1C(=O)O" is -1.48

Sure, the documented cytotoxicity at 70.5 h for "Cc1[nH]nc(CCC(=O)N2CCc3c(nc[nH]c3=O)C2)c1C" is -15.9

====

Let's look at some molecules and their measured cytotoxicity at 70.5 h.
Assay: Human HepG2 cell viability assay in 384 well format
Format: toxicity, cell-based
Design: dose 125 nL, time 70.5 hour; concentration not given beside the values
Conditions: HepG2 cells, read-out: Inhibition
Use % as the unit, but write only the number.

Sure, the documented cytotoxicity at 70.5 h for CC(C)C(C)NC(=O)Nc1ccccc1CN1CCOCC1 (stereo not drawn) is -8.46

Sure, the documented cytotoxicity at 70.5 h for Cc1nn(C)c(N(C)C)c1CNC1CCc2c(F)cccc21 (stereo not drawn) is 7.05

Sure, the documented cytotoxicity at 70.5 h for "Cc1cc2ncn(C[C@]3(O)CCCN4CCCC[C@@H]43)c2cc1C" is -15

Sure, the documented cytotoxicity at 70.5 h for "Cc1cc(CNc2cccc(Cl)c2C)no1" is -17.1

Sure, the documented cytotoxicity at 70.5 h for CN1CCOC(CNC(=O)C2(c3cccc(C(F)(F)F)c3)CCCC2)C1 (stereo not drawn) is 6.99

Sure, the documented cytotoxicity at 70.5 h for Cc1cc(-n2c(C)cn(CN(C)C3CCS(=O)(=O)C3)c2=O)no1 (stereo not drawn) is -14.6

Sure, the documented cytotoxicity at 70.5 h for Cc1ncncc1C(=O)N1CCCC(n2cccn2)C1 (stereo not drawn) is 8.65

Sure, the documented cytotoxicity at 70.5 h for "O=C(CCc1ccc(Cl)s1)NCc1nnc2n1CCCCC2" is -15.9

Sure, the documented cytotoxicity at 70.5 h for "COc1cccc2cc(CNCc3ccnc(N4CCOCC4)c3)oc12" is 11.7

Sure, the documented cytotoxicity at 70.5 h for O=C1CC(NCc2cnc(C3CCCCC3)nc2)CN1c1ccccc1 (stereo not drawn) is 13.8

Sure, the documented cytotoxicity at 70.5 h for "Cc1nc2cc(=O)[nH]n2c(C)c1CNC(=O)c1cnn(C(C)(C)C)c1" is 4.01

The values you see were collected from ChEMBL document CHEMBL3507680.
